Molecular target: recombinant DltA from S. epidermidis (Staphylococcus epidermidis)
Construct: made in house; host or cells: E. coli
Sequence (Q5HQN0 1-485): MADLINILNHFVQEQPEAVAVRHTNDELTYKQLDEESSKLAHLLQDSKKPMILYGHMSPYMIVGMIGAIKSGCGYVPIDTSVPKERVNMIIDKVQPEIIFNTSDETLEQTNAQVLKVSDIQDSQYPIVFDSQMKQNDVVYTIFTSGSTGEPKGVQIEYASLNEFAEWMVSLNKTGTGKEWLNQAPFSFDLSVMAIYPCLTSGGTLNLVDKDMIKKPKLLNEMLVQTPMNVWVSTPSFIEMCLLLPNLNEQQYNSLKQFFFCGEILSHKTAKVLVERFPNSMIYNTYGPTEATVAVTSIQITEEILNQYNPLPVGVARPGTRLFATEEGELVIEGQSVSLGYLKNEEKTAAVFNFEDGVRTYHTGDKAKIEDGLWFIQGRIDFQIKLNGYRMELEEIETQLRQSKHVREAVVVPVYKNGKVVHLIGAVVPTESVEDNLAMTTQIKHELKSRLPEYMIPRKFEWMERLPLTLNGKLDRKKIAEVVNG
Assay: DltA enzyme inhibition, PPi release coupled-enzyme assay
Type: biochemical
Method: All new compounds were then evaluated in vitro for enzyme inhibition against recombinant DltA from E. faecalis or S. epidermis. Half-maximal inhibitory concentrations (IC50) were then determined by measuring the amount of PPi released at different inhibitor concentrations (Table 2). […] The DltA-catalyzed ATP-hydrolysis reaction was monitored in vitro via PPi release (DltA +D-alanine +ATP → DltA-DAla-AMP +PPi) using a coupled-enzyme assay. […]
quantity: IC50 (µM)
I only need the number, in µM, no unit after it.

Examples with answers:
CC(N)C(=O)NS(=O)(=O)NCC1OC(n2cnc3c(N)ncnc32)C(O)C1O (stereo not drawn) [Compound 30]; 2
C[C@@H](N)C(=O)NS(=O)(=O)OC[C@H]1O[C@@H](n2cnc3c(N)ncnc32)[C@H](O)[C@@H]1O [Compound 1, reference compound]; 2.4
CCCCCCC(=O)N[C@H](C)C(=O)c1cn(C[C@H]2O[C@@H](n3cnc4c(N)ncnc43)[C@H](O)[C@@H]2O)nn1 [Compound 51]; 22.2

Briefly, IC50 measured for CCCCCCOc1ccc(C(=O)N[C@H](C)C(=O)c2cn(C[C@H]3O[C@@H](n4cnc5c(N)ncnc54)[C@H](O)[C@@H]3O)nn2)cc1 [Compound 53] : 16

Memo: C[C@@H](N)C(=O)NS(=O)(=O)OC[C@H]1O[C@@H](n2cnc3c(N)ncnc32)[C@H](n2cc(CO[C@@H]3O[C@H](CO)[C@@H](O)[C@H](O)[C@H]3O)nn2)[C@@H]1O [Compound 11] , reported IC50: 39.5

What the record says about CC(C)OP(=O)(OC(C)C)C(F)(F)/C=C/CO[C@@H]1[C@H](O)[C@@H](COS(=O)(=O)NC(=O)[C@@H](C)N)O[C@H]1n1cnc2c(N)ncnc21 [Compound 18] : IC50 is 7.6

C[C@@H](NC(=O)c1ccc(-c2ccccc2)cc1)C(=O)c1cn(C[C@H]2O[C@@H](n3cnc4c(N)ncnc43)[C@H](O)[C@@H]2O)nn1 [Compound 52] yielded IC50 of 12.4

Entry C[C@@H](NC(=O)OCc1ccc([N+](=O)[O-])cc1)C(=O)c1cn(C[C@H]2O[C@@H](n3cnc4c(N)ncnc43)[C@H](O)[C@@H]2O)nn1 [Compound 54] — recorded IC50 = 21.9
